# target_entity: HIV-1 Env of CAAN.A2 (HIV-1)
# protocol_text: cell-based or functional assay
The following binders are listed with their measured neutralization IC50 values.

binder: CAP256-VRC26.08 (antibody, V domains shown) VH: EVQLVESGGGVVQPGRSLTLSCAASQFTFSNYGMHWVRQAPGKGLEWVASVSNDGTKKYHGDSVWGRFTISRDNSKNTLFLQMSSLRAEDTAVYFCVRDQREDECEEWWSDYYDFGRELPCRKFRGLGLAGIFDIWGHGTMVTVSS VL: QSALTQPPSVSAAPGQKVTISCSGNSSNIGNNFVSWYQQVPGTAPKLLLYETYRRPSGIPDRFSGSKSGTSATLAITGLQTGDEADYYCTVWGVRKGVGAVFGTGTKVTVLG
neutralization IC50: > 50 µg/mL

Note: attention shifts to another entry.
Measured neutralization IC50 of CAP256-VRC26.06 (antibody, V domains shown) VH: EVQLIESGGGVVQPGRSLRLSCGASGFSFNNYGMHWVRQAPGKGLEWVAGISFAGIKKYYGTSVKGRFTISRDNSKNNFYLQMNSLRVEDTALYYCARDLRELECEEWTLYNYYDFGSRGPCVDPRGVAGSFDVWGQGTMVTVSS VL: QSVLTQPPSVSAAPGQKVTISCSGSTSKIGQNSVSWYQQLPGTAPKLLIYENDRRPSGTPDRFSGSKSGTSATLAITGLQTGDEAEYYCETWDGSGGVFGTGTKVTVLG : > 50 µg/mL
